experiment: Solubility of BSA-containing formulations (post vortexing, 30 min and overnight at 18° C.); format: physicochemical; conditions: BSA-containing formulation, 18 °C, aqueous with cosolvent or surfactant or cyclodextrin, compound 2 mg/mL; BSA 10 mg/mL; after 30 minutes incubation at 18° C.; read-out: Solubility of BSA-containing formulations after 30 min incubation at 18° C., 10 mg/mL
measuredEndpoint: solubility at 30 min

Q: Reported solubility at 30 min for CCN1/C(=C/C=C/c2sc3ccccc3[n+]2CC)Sc2ccccc21 [JAC-B1, 3′,3′-Diethylthiacarbocyanine iodide] : what is it?
Ans: < 2 mg/mL

###

assay: Solubility of glycerol-containing formulations (post vortexing, 30 min and overnight at 18° C.); type: physicochemical; conditions: glycerol-containing formulation, compound 2 mg/mL; 0% glycerol; post vortexing; read-out: Solubility of glycerol-containing formulations post vortexing, 0%
measuredEndpoint: solubility at 30 s

Below, 2 compounds whose answers are already recorded.
{"compound": "CCN1/C(=C/C=C/c2oc3ccccc3[n+]2CC)Oc2ccccc21 [JAC-R1, 3′,3′-Diethyloxacarbocyanine iodide]", "reportedValue": "< 2000 µg/mL"}
{"compound": "CCN1/C(=C/C=C/c2sc3ccccc3[n+]2CC)Sc2ccccc21 [JAC-B1, 3′,3′-Diethylthiacarbocyanine iodide]", "reportedValue": "< 2000 µg/mL"}

Switching to the query record.
Q: Reported solubility at 30 s for CCN1/C(=C/C(C)=C/c2sc3ccccc3[n+]2CC)Sc2ccccc21 [JAC-B2.5] : what is it?
Ans: < 2000 µg/mL
